Just for reference, ChEMBL document CHEMBL4689842 is where these values come from.

System: HEK-293T
Method summary: Incucyte cell viability with HEK293T; also: filed as whole numbers so only -1 and 0 and 1 occur
Assay type: toxicity, cell-based
Experimental context: human, 6 h, 10 µM, compound concentration 10 uM, replicate number 1, timepoint 6 hours
Can you tell me Growth Rate for the items I'm about to list?
Give bare numbers.

c1cc(CN2CCCNCCNCCCNCC2)ccc1CN1CCCNCCNCCCNCC1 :: 0
Oc1cccc(-c2nc(N3CCOCC3)c3oc4ncccc4c3n2)c1 :: 0

# return Growth Rate for each item in the list
1. CCC(=O)NC1Cc2ccccc2C(c2ccccc2)C1 (centres undefined)
2. CS(=O)(=O)N1CCCC(NC(=O)[C@H](CCC2CCCCC2)NC(=O)c2ccc(CNC(=O)c3cnc4ccccn34)cc2)C1 (some centres undefined)
3. CN1CCN(c2ccc(-c3cccc(CN4CCOCC4)c3)cc2NC(=O)c2c[nH]c(=O)cc2C(F)(F)F)CC1
4. C[C@@H](N)Cc1c[nH]cn1.Cl.Cl
5. Cc1c(Nc2ccc(S(=O)(=O)N3CCN(C)CC3)cc2F)nc2ccc(-c3cnn(C4CC4)c3)cn2c1=O
6. Cc1c(Nc2ccc(S(=O)(=O)N3CCN(C)CC3)cc2F)nc2ccc(Nc3cnn(C4CC4)c3)cn2c1=O
7. O=C(N1CCS(=O)(=O)CC1)N1C[C@H](c2ccc(OC(F)(F)F)cc2)C[C@H](c2nc(C3CC3)no2)C1

1. 1
2. 0
3. 0
4. 1
5. 0
6. 0
7. 1

###

Can you tell me Population Pyknosed Nuclei (%) for the items I'm about to list?
System: HEK-293T
Method summary: Multiplex assay against HEK293T
Type: toxicity, cell-based
Experimental context: human, 12 h, 10 µM, compound concentration 10 uM, replicate 2
Could you write the number and then its unit?

Cl.Cn1c2c(c3ccc(Cl)c(Cl)c31)C(C#N)C1(CCNCC1)NC2=O (stereo not given) :: 22%

# return Population Pyknosed Nuclei (%) for each item in the list
1. Cc1ccc(S(=O)(=O)NC2c3ccccc3Oc3ccccc32)cc1
2. CCCc1cc(C)[nH]c(=O)c1CNC(=O)c1cc(-c2ccc(N3CCN(C(C)C)CC3)nc2)cc2c1cnn2C(C)C
3. CC(/C=C1\SC(=S)N(CCCC(=O)Nc2ccc(C(=O)O)c(O)c2)C1=O)=C\c1ccccc1
4. C[C@@H](Oc1cc(-n2cnc3ccc(CN4CCN(C)CC4)cc32)sc1C(N)=O)c1ccccc1C(F)(F)F

1. 31%
2. 82%
3. 43%
4. 73%

###

System: Fibroblast
Method summary: Multiplex assay against human fibroblast
Assay type: toxicity, cell-based
Experimental context: 12 h, 10 µM, compound concentration 10 uM, replicate 1
Can you tell me Population Hoechst High Intensity Objects (%) for the items I'm about to list?
Give bare numbers, in %.

Previously resolved entries follow.
CCCCCNC(=N)N/N=C/c1c[nH]c2ccc(OC)cc12.O=C(O)/C=C\C(=O)O [TEGASEROD MALEATE] :: 20
CCCc1cc(C)[nH]c(=O)c1CNC(=O)c1cc(-c2ccc(N3CCN(C(C)C)CC3)nc2)cc2c1cnn2C(C)C :: 29
Cc1c(P(=S)(c2ccccc2)c2ccccc2)n2ccccc2[n+]1C/C=C/c1ccccc1.[Br-] :: 14
COc1cc(C)c(Sc2cnc(NC(=O)c3ccc(CNC(C)C(C)(C)C)cc3)s2)cc1C(=O)N1CCN(C(C)=O)CC1 (stereo not drawn) :: 12

# return Population Hoechst High Intensity Objects (%) for each item in the list
1. CC(C)c1cc(Nc2nc(N3CCC[C@H](N)C3)ncc2C(N)=O)cc(C(C)C)n1
2. CN1C(=O)[C@@H](NC(=O)c2cc3ccccc3[nH]2)N=C(c2ccccc2)c2ccccc21 [DEVAZEPIDE]
3. NC(=O)c1ccc2nc(-c3ccc(C4(N)CCC4)cc3)c(-c3ccccc3)n2n1

1. 28
2. 16
3. 13

// lookup Population Hoechst High Intensity Objects (%) for "CC[C@@]1(O)C(=O)OCc2c1cc1n(c2=O)Cc2cc3ccccc3nc2-1"
27

###

System: HEK-293T
Method summary: Incucyte cell viability with HEK293T; also: filed as whole numbers so only -1 and 0 and 1 occur
Type: toxicity, cell-based
Experimental context: human, 24 h, 10 µM, compound concentration 10 uM, replicate number 2, timepoint 24 hours
Can you tell me Growth Rate for the items I'm about to list?
Give bare numbers.

# return Growth Rate for each item in the list
1. N#CC1(c2ccccn2)CCN(Cc2cc(C(=O)O)c(=O)n3ccccc23)CC1 [MSD-M1PAM]
2. COc1ncc(F)cc1CNc1ccc(Cc2c[nH]c3ncc(C)cc23)c(F)n1 [PLX-5622]

1. 0
2. 0

# return Growth Rate for each item in the list
1. COc1ccc(Br)cc1S(=O)(=O)NC(=O)/C=C/c1ccccc1Cc1ccc2ccccc2c1
2. OCCn1cc(-c2ccc3c(c2)CCC3=NO)c(-c2ccncc2)n1

1: 1; 2: 1

# return Growth Rate for each item in the list
1. CCCOc1ccn2c(C(C)=O)cc(-c3cccc(OC)c3)c2c1
2. Cc1cc(OCC(=O)O)cc(C)c1Cc1ccc(O)c(C(C)C)c1 [SOBETIROME]
3. CC[C@@H]1CN(C(=O)NCC(F)(F)F)C[C@@H]1c1cnc2cnc3[nH]ccc3n12 [UPADACITINIB]
4. CCc1cc(Nc2nccc(-c3c(-c4ccc(OC)c(C(=O)Nc5c(F)cccc5F)c4)nc4ccccn34)n2)c(OC)cc1N1CCC(N2CCN(S(C)(=O)=O)CC2)CC1
5. C[C@@H](N)Cc1c[nH]cn1.Cl.Cl
6. NC(=O)[C@@H]1CCCN1C(=O)[C@H](Cc1cnc[nH]1)NC(=O)[C@@H]1CCC(=O)N1 [PROTIRELIN]
7. CC(C)(N)C(=O)N[C@H](COCc1ccccc1)C(=O)N1CCC2(CC1)CN(S(C)(=O)=O)c1ccccc12.CS(=O)(=O)O [IBUTAMOREN MESYLATE]

1. 1
2. 1
3. 1
4. 1
5. 0
6. 0
7. 1

# return Growth Rate for each item in the list
1. C[C@@H](NC(=O)Nc1cc2[nH]ncc2c(CO)n1)c1ccccc1 [ERKi]
2. CCCCC#Cc1nc(NC)c2ncn([C@@H]3O[C@H](CO)[C@@H](O)[C@H]3O)c2n1
3. CCOc1ccn(-c2ccc(F)cc2)c(=O)c1C(=O)Nc1ccc(Oc2ccnc(N)c2Cl)c(F)c1 [BMS-777607]

1
1
0

###

Test system: HEK-293T
Method summary: Multiplex assay against HEK293T
Format: toxicity, cell-based
Experimental context: human, 48 h, 10 µM, compound concentration 10 uM, replicate 1
API: label(entry) gives YES if the entry's Population Hoechst High Intensity Objects (%) is strictly smaller than 20%; on equality or larger values it gives NO.

C=CC(=O)Nc1cc(-n2c(=O)ccc3cnc4ccc(-c5ccc(NS(C)(=O)=O)cc5)cc4c32)ccc1C :: YES
N#Cc1cccc(C(=O)Nc2cc(-c3ccccc3)nn2-c2ccccc2)c1 :: YES
CCCc1cc(C)[nH]c(=O)c1CNC(=O)c1cc(-c2ccc(N3CCN(C(C)C)CC3)nc2)cc2c1cnn2C(C)C :: NO
CC(C)[C@H](CO)Nc1nc(Nc2cccc(Cl)c2)c2ncn(C(C)C)c2n1 [PURVALANOLA] :: YES
C[C@@H](Oc1cc(-n2cnc3ccc(CN4CCN(C)CC4)cc32)sc1C(N)=O)c1ccccc1C(F)(F)F [GSK-461364] :: NO

Identify whether the compound "Cc1c(P(=S)(c2ccccc2)c2ccccc2)n2ccccc2[n+]1C/C=C/c1ccccc1.[Br-]" records Population Hoechst High Intensity Objects (%) below 20%.
NO

Identify whether the compound N#CCNC(=O)c1ccc(-c2ccnc(Nc3ccc(N4CCOCC4)cc3)n2)cc1 [MOMELOTINIB] records Population Hoechst High Intensity Objects (%) below 20%.
YES

Identify whether the compound "Cc1ccc(S(=O)(=O)NC2c3ccccc3Oc3ccccc32)cc1" records Population Hoechst High Intensity Objects (%) below 20%.
YES

###

System: HEK-293T
Method summary: Multiplex assay against HEK293T
Type: toxicity, cell-based
Experimental context: human, 12 h, 10 µM, compound concentration 10 uM, replicate 1
Assay metric: Population Apoptotic (%)
Numbers only, in %.

Previously resolved entries follow.
CN1C(=O)[C@@H](NC(=O)c2cc3ccccc3[nH]2)N=C(c2ccccc2)c2ccccc21 [DEVAZEPIDE] :: 58
CCCc1cc(C)[nH]c(=O)c1CNC(=O)c1cc(-c2ccc(N3CCN(C(C)C)CC3)nc2)cc2c1cnn2C(C)C :: 94

// below: Population Apoptotic (%) requested for another compound
// lookup Population Apoptotic (%) for CC(Cc1ccc(O)c(O)c1)C(C)Cc1ccc(O)c(O)c1 (stereo not drawn) [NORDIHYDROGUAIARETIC ACID]
33

###

Tested on: HEK-293T
Method summary: Multiplex assay against HEK293T
Type: toxicity, cell-based
Experimental context: human, 48 h, 1 µM, compound concentration 1 uM, replicate 1
API: label(entry) gives rule met if the entry's Population Apoptotic (%) is strictly smaller than 40%; on equality or larger values it gives rule not met.

Some solved entries appear below for comparison.
Oc1cccc(-c2nc(N3CCOCC3)c3oc4ncccc4c3n2)c1 [PI-103] :: rule not met
CC(Cc1ccc(O)c(O)c1)C(C)Cc1ccc(O)c(O)c1 (centres undefined) [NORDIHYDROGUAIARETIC ACID] :: rule met
C[C@@H](Oc1cc(-n2cnc3ccc(CN4CCN(C)CC4)cc32)sc1C(N)=O)c1ccccc1C(F)(F)F [GSK-461364] :: rule not met
CN(c1cc(C(F)(F)F)nc(OCCC(=O)O)n1)c1cccc2c1CCC2 :: rule not met
CC(/C=C1\SC(=S)N(CCCC(=O)Nc2ccc(C(=O)O)c(O)c2)C1=O)=C\c1ccccc1 :: rule met

Identify whether the compound N#CCNC(=O)c1ccc(-c2ccnc(Nc3ccc(N4CCOCC4)cc3)n2)cc1 [MOMELOTINIB] records Population Apoptotic (%) below 40%.
rule not met

Identify whether the compound CN1C(=O)[C@@H](NC(=O)c2cc3ccccc3[nH]2)N=C(c2ccccc2)c2ccccc21 [DEVAZEPIDE] records Population Apoptotic (%) below 40%.
rule not met

Identify whether the compound "Cc1ccc(S(=O)(=O)NC2c3ccccc3Oc3ccccc32)cc1" records Population Apoptotic (%) below 40%.
rule met

Identify whether the compound "C=CC(=O)Nc1cc(-n2c(=O)ccc3cnc4ccc(-c5ccc(NS(C)(=O)=O)cc5)cc4c32)ccc1C" records Population Apoptotic (%) below 40%.
rule not met
